# Tested on: 242566-281-R-J2-PDC complex spheroid viability
# method.notes: Anticancer human tumor 242566-281-R-J2-PDC patient-derived pancreatic carcinoma cell line growth inhibition [RAS]
# measurement.parameters: second compound 0.316 µM; first compound 0.0316 µM; hits give low values
readout.name: viability, T/C (%)
Write the answer as a number in %, unit excluded.

// known answers, use as guide
compound: CCC(CC)c1cc(NC2CCC(N)C2)n2nccc2n1 (stereo not drawn) + C#Cc1c(F)ccc2cc(O)cc(-c3ncc4c(N5CC6CCC(C5)N6)nc(OCC56CCCN5CC(F)C6)nc4c3F)c12
viability, T/C / %: 83.6

compound: Nc1ccn(C2OC(CO)C(O)C2(F)F)c(=O)n1 (stereo not drawn) + C#Cc1c(F)ccc2cc(O)cc(-c3ncc4c(N5CC6CCC(C5)N6)nc(OCC56CCCN5CC(F)C6)nc4c3F)c12
viability, T/C / %: 49.4

Next:
Measured viability, T/C, CC(C)n1nc(-c2ccc3oc(N)nc3c2)c2c(N)ncnc21 + C=CC(=O)N1CCN(c2nc(OCC3CCCN3C)nc3c(F)c(-c4nc(N)cc(C)c4C(F)(F)F)c(Cl)cc23)C(C)C1 : 69.5

---

# System: 242566-281-R-J2-PDC complex spheroid viability
# method.notes: Anticancer human tumor 242566-281-R-J2-PDC cell line growth inhibition [RAS];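 note: spheroids exposed to compound for 7 days before readout; 100% = DMSO vehicle control wells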
# measurement.parameters: second compound 0.000949 µM; first compound 0.1 µM; hits give low values
readout.name: viability, T/C (%)
Write the answer as a number in %, unit excluded.

// known answers, use as guide
compound: CC1(O)CCCC1n1c(=O)c(C(F)F)cc2cnc(NC3CCN(S(C)(=O)=O)CC3)nc21 (stereo not given) + CCn1c(-c2cc(N3CCN(C)CC3)cnc2C(C)OC)c2c3cc(ccc31)-c1csc(n1)CC(NC(=O)C1CC1C)C(=O)N1CCCC(N1)C(=O)OCC(C)(C)C2
data.value: 84

compound: Cc1nc(N2CCC3(CC2)COC(C)C3N)c(CO)nc1Sc1ccnc(N)c1Cl (stereo not given) + CCn1c(-c2cc(N3CCN(C)CC3)cnc2C(C)OC)c2c3cc(ccc31)-c1csc(n1)CC(NC(=O)C1CC1C)C(=O)N1CCCC(N1)C(=O)OCC(C)(C)C2
data.value: 69.8

compound: NC1c2ccccc2OC12CCN(c1cnc3c(N4CCCc5ncccc54)n[nH]c3n1)CC2 (stereo not given) + CCn1c(-c2cccnc2C(C)OC)c2c3cc(ccc31)N1CCOC(CC(NC(=O)C(C(C)C)N(C)C(=O)C3(F)CCN(C(=O)C#CC(C)(C)N(C)C)CC3)C(=O)N3CCCC(N3)C(=O)OCC(C)(C)C2)C1
data.value: 80.3

compound: O=C(c1ccc(F)c(F)c1Nc1ccc(I)cc1F)N1CC(O)([C@@H]2CCCCN2)C1 + CCn1c(-c2cc(N3CCN(C)CC3)cnc2C(C)OC)c2c3cc(ccc31)-c1csc(n1)CC(NC(=O)C1CC1C)C(=O)N1CCCC(N1)C(=O)OCC(C)(C)C2
data.value: 42.3

Measured viability, T/C, CC(C)n1nc(-c2ccc3oc(N)nc3c2)c2c(N)ncnc21 + CCn1c(-c2cc(N3CCN(C)CC3)cnc2C(C)OC)c2c3cc(ccc31)-c1csc(n1)CC(NC(=O)C1CC1C)C(=O)N1CCCC(N1)C(=O)OCC(C)(C)C2 : 27.4
